All figures here come from PubChem BioAssay (NCI).

- System: SK-MEL-5 melanoma
- test-name: NCI-60 one-dose screen, 48 h
- particulars: 10 µM unless noted
This is part of a sample that, as a whole, favours compounds with a hit. Of some 83,000 tested, about 20% had one in any assay. The source made the active and inactive calls. How the source made its calls: active means growth percent below 10; inactive means the rest.
One label from this list, please: active, inactive

Observe how each entry below is paired with its result.
Query: Lab log entry: COc1ccc(Nc2nc(-c3cc(O)c(C)c(C)c3O)cs2)cc1 — outcome as called in the assay?
Response: inactive

Query: How about this compound: CCSC(SCC)c1ccc(Cl)cc1
Response: inactive

Query: How about this compound: O=C(Nc1ccc(Oc2cccc(F)c2)c(Cl)c1)c1cccnc1
Response: active

Query: How about this compound: CCCCCC(/C=N\NC(=S)N/N=C/C(=C/c1ccccc1)CCCCC)=C\c1ccccc1
Response: inactive

Query: How about this compound: CN(/C(N)=N/N=C/c1c2ccccc2cc2ccccc12)C1CCCCC1
Response: inactive

Now look at this entry.
Query: Lab log entry: O=S(=O)(Nc1ccc(Cl)c(C(F)(F)F)c1)c1ccc(-c2cnc(C3CC3)o2)cc1 — outcome as called in the assay?
Response: inactive
